These data points were gathered from patent US9238639B2.

target: human GOAT (Homo sapiens); construct: made in house; host or cells: Sf9 insect cells (BacToBac baculovirus, pFastBac1 vector); microsome fraction; assay: GOAT enzyme activity measurement by HTRF method (human GOAT-expressing microsome fraction); type: biochemical; details: 10 μM compound; human GOAT-expressing Sf9 microsome fraction; octanoyl-CoA and Ghrelin-biotin substrates; 0% control without compound, 100% control without enzyme
Recorded endpoint: inhibition at 10 µM (%)

// solved cases for inhibition at 10 µM follow
Inquiry: Query (compound): Cc1ccc(/C=C/c2ccc3c(CC(=O)O)csc3c2)c(C)n1 ; field requested: inhibition at 10 µM
Reply text: 83.1

Inquiry: Query (compound): COC(=O)Cc1csc2cc(OCc3cc(C)nn3C)cc(C)c12 ; field requested: inhibition at 10 µM
Reply text: 94.7

Inquiry: Query (compound): Cc1cc(OCc2cc(C(F)(F)F)nn2C)c(F)c2scc(CC(=O)O)c12 ; field requested: inhibition at 10 µM
Reply text: 104

Inquiry: Query (compound): COC(=O)Cc1csc2cc(OCc3ccc(Cl)cc3Cl)cc(C)c12 ; field requested: inhibition at 10 µM
Reply text: 84.4

Inquiry: Query (compound): O=C(O)Cc1csc2cc(S(=O)(=O)Cc3ccc(Cl)cc3Cl)ccc12 ; field requested: inhibition at 10 µM
Reply text: 83

a = COC(=O)Cc1csc2c(F)c(OCc3ccc(C(F)(F)F)nc3C)cc(C)c12
b = COC(=O)Cc1csc2c(C)c(OCc3ccc(C(F)(F)F)nc3C)cc(C)c12
Inquiry: Smaller inhibition at 10 µM value? Options are a and b Return value: the label identifying the chosen record.
Reply text: b

---

Biological target: human GOAT (Homo sapiens, UniProt Q96T53)
Construct: made in house; host or cells: Sf9 insect cells (BacToBac baculovirus, pFastBac1 vector); microsome fraction
Sequence (Q96T53 1-435): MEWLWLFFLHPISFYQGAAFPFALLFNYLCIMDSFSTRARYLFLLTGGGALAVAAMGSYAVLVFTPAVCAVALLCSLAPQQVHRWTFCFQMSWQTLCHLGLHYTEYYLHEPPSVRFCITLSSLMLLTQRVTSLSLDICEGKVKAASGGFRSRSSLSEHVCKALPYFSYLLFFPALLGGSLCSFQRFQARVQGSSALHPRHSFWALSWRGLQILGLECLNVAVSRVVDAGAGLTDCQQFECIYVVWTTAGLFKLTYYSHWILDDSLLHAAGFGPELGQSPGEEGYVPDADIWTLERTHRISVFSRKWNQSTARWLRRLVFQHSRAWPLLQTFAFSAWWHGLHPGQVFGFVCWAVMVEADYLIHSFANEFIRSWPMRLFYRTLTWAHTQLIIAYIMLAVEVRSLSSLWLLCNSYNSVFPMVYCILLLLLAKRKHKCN
Assay: GOAT enzyme activity measurement by HTRF method (human GOAT-expressing microsome fraction)
Assay type: biochemical
Conditions: 10 μM compound; human GOAT-expressing Sf9 microsome fraction; octanoyl-CoA and Ghrelin-biotin substrates; 0% control without compound, 100% control without enzyme
Recorded endpoint: inhibition at 10 µM (%)

// solved cases for inhibition at 10 µM follow
Inquiry: Query (compound): Cc1ccc(COc2cc(Cl)c3c(CC(=O)O)csc3c2)c(C)n1 ; field requested: inhibition at 10 µM
Reply text: 107

Inquiry: Query (compound): Cc1ccc(COc2cc(C)c3c(CC(=O)O)coc3c2C)c(C)n1 ; field requested: inhibition at 10 µM
Reply text: 102

Inquiry: Query (compound): COC(=O)Cc1csc2cc(OCc3ccc(C(F)(F)F)nc3C)cc(F)c12 ; field requested: inhibition at 10 µM
Reply text: 94.9

Inquiry: Query (compound): COC(=O)Cc1csc2cc(OCc3ccc(C(F)(F)F)nc3C)cc(C)c12 ; field requested: inhibition at 10 µM
Reply text: 93.8

Inquiry: Query (compound): Cc1sc2cc(OCc3cc(C(F)(F)F)nn3C)cc(Cl)c2c1CC(=O)O ; field requested: inhibition at 10 µM
Reply text: 106

a = COC(=O)Cc1coc2c(C)c(OCc3ccc(C)nc3C)cc(C)c12
b = CCOC(=O)CNC(=O)Cc1csc2cc(OCc3ccc(Cl)cc3Cl)ccc12
Inquiry: Identify the entry with the larger inhibition at 10 µM. Options: a and b Return value: the label identifying the chosen record.
Reply text: a
(a: 92.7%, b: 56%)
